# TARGET SYSTEM: human GLUT1 (Homo sapiens, UniProt P11166)
# Construct: expressed in transfected cells
# Sequence (P11166 whole entry): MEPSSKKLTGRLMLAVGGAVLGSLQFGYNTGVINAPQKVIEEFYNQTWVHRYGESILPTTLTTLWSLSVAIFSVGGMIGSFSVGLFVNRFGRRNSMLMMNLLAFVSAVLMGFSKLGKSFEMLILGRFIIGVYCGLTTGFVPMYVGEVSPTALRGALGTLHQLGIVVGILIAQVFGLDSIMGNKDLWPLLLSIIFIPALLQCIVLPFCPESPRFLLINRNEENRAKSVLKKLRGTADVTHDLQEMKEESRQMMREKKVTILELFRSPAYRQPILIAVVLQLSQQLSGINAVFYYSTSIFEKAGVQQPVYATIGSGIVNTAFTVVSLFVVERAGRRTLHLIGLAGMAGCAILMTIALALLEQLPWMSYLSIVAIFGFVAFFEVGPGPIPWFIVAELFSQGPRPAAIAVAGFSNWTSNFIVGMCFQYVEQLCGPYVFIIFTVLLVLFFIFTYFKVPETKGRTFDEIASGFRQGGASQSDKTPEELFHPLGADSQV
# ASSAY SUMMARY: [3H]-deoxy-D-glucose uptake assay, GLUT1
# Format: cell-based
# MEASUREMENT CONTEXT: [3H]-deoxy-D-glucose uptake in HEK293 cells stably expressing human GLUT1
TEST READOUT: GLUT1 pIC50

Example entries and their recorded answers appear below.
>>> result("CC(C)(C)c1ccc(C(=O)N2CCN(Cc3c(-c4ccc(Cl)cc4)nc4ccc(-c5ccccc5)cn34)CC2)cc1 [Compound 42]")
"+ (pIC50 4.00-4.99)"
>>> result("COc1cccc(-c2nc3ccc(-c4ccccc4Cl)cn3c2CN2CCN(C(=O)C3CCC3)CC2)c1 [Compound 190]")
"+++ (pIC50 ≧ 6.00)"
>>> result("O=C(C1CCOCC1)N1CCN(Cc2c(-c3ccc(Cl)cc3Cl)nc3cnc(C4CC4)cn23)CC1 [Compound 297]")
"+++ (pIC50 ≧ 6.00)"
>>> result("NC1CCN(Cc2c(-c3ccc(Cl)cc3)nc3ccc(-c4ccccc4)cn23)CC1 [Compound 197]")
"+ (pIC50 4.00-4.99)"
>>> result("CCS(=O)(=O)N1CCN(Cc2c(-c3cccc(OC)c3)nc3ccc(-c4ccccc4)cn23)CC1 [Compound 25]")
"++ (pIC50 5.00-5.99)"

Looking for the measured GLUT1 pIC50 of COc1cccc(-c2nc3ccc(-c4ccccc4)cn3c2CN2CCN(C(=O)c3ccccc3F)CC2)c1 [Compound 71] , can you help?
+++ (pIC50 ≧ 6.00)

Entry to check: CC(=O)N1CCN(Cc2c(-c3ccc(Cl)cc3)nc3ccc(N4CCCS4(=O)=O)cn23)CC1 [Compound 320]
+++ (pIC50 ≧ 6.00)

Entry to check: Clc1ccc(-c2nc3ccc(-c4ccccc4)cn3c2CN2CCOCC2)cc1 [Compound 1]
++ (pIC50 5.00-5.99)

Entry to check: CC(=O)N1CCN(Cc2c(-c3ccc(Cl)cc3)nc3ccc(N(C(C)C)S(C)(=O)=O)cn23)CC1 [Compound 365]
+++ (pIC50 ≧ 6.00)

----------
# TARGET SYSTEM: human GLUT2 (Homo sapiens, UniProt P11168)
# Construct: expressed in transfected cells
# Sequence (P11168 whole entry): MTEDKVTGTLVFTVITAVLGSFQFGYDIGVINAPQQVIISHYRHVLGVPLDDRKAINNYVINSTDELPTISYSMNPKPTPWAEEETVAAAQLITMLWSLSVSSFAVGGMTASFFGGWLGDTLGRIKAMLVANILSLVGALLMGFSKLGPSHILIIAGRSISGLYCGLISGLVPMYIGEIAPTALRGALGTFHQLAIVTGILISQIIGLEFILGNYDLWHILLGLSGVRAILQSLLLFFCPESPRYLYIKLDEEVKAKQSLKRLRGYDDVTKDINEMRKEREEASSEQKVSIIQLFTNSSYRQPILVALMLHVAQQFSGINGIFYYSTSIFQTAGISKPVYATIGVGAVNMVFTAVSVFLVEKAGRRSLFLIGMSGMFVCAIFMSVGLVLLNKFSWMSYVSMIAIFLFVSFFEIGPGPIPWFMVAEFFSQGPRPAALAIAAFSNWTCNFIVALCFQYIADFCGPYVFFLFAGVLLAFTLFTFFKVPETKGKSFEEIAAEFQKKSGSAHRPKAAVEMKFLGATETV
# ASSAY SUMMARY: [3H]-deoxy-D-glucose uptake assay, GLUT2
# Assay type: cell-based
# MEASUREMENT CONTEXT: [3H]-deoxy-D-glucose uptake in HEK293 cells stably expressing human GLUT2
TEST READOUT: GLUT2 pIC50

Example entries and their recorded answers appear below.
>>> result("Clc1ccc(-c2nc3ccc(-c4ccccn4)cn3c2CN2CCn3ncnc3C2)c(Cl)c1")
"+++ (pIC50 ≧ 6.00)"
>>> result("O=C(C1COC1)N1CCN(Cc2c(-c3ccc(Cl)cc3Cl)nc3ccc(-c4ncon4)cn23)CC1")
"+++ (pIC50 ≧ 6.00)"
>>> result("O=C1CCN(Cc2c(-c3ccc(Cl)cc3)nc3ccc(-c4ccccc4)cn23)CCN1")
"+++ (pIC50 ≧ 6.00)"
>>> result("O=C(CO)N1CCN(Cc2c(-c3ccc(Cl)cc3Cl)nc3cnc(C4CC4)cn23)CC1")
"+++ (pIC50 ≧ 6.00)"
>>> result("CN(c1ccc2nc(-c3ccc(Cl)cc3Cl)c(CN3CCN(C(=O)C(C)(C)O)CC3)n2c1)S(C)(=O)=O")
"++ (pIC50 5.00-5.99)"

Looking for the measured GLUT2 pIC50 of CN(c1ccc2nc(-c3ccc(Cl)cc3)c(CN3CCOCC3)n2c1)S(C)(=O)=O , can you help?
++ (pIC50 5.00-5.99)

Entry to check: CC(=O)N1CCN(Cc2c(-c3ccc(Cl)cc3Cl)nc3ccc(N(C(F)F)S(C)(=O)=O)cn23)CC1
+++ (pIC50 ≧ 6.00)

----------
# TARGET SYSTEM: human GLUT1 (Homo sapiens, UniProt P11166)
# Construct: expressed in transfected cells
# ASSAY SUMMARY: [3H]-deoxy-D-glucose uptake assay, GLUT1
# Type: cell-based
# MEASUREMENT CONTEXT: [3H]-deoxy-D-glucose uptake in HEK293 cells stably expressing human GLUT1
TEST READOUT: GLUT1 pIC50

>>> result("CN(c1ccc2nc(-c3ccc(Cl)cc3)c(CN3CCN(C(=O)c4ccnnc4)CC3)n2c1)S(C)(=O)=O [Compound 310]")
"+++ (pIC50 ≧ 6.00)"
>>> result("CN(c1ccc2nc(-c3ccc(Cl)cc3Cl)c(CN3CCNC(=O)C3)n2c1)S(C)(=O)=O [Compound 355]")
"+++ (pIC50 ≧ 6.00)"
>>> result("CN(c1ccc2nc(-c3ccc(Cl)cc3)c(CN3CCn4ncnc4C3)n2c1)S(C)(=O)=O [Compound 324]")
"+++ (pIC50 ≧ 6.00)"

----------
# TARGET SYSTEM: human GLUT4 (Homo sapiens)
# Construct: expressed in transfected cells
# Sequence (P14672 whole entry): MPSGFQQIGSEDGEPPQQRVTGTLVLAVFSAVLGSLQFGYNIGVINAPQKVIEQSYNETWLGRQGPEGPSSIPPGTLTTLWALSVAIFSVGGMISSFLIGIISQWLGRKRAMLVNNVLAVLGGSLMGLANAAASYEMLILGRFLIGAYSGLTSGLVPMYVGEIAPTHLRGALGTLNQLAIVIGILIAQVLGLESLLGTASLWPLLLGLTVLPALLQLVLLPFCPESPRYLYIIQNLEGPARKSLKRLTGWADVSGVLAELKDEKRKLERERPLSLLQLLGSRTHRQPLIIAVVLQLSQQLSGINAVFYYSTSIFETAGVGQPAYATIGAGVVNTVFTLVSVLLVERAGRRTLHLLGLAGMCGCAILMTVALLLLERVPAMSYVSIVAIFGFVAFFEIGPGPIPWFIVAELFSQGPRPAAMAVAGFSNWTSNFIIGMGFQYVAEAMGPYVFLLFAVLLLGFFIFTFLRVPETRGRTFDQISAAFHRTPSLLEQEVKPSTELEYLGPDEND
# ASSAY SUMMARY: [3H]-deoxy-D-glucose uptake assay, GLUT4
# Assay type: cell-based
# MEASUREMENT CONTEXT: [3H]-deoxy-D-glucose uptake in HEK293 cells stably expressing human GLUT4
TEST READOUT: GLUT4 pIC50

>>> result("CN(c1ccc2nc(-c3ccc(Cl)cc3)c(CN3CCN(C(=O)C4COC4)CC3)n2c1)S(C)(=O)=O [Compound 309]")
"+++ (pIC50 ≧ 6.00)"
>>> result("O=C(C1CCOCC1)N1CCN(Cc2c(-c3ccc(Cl)cc3Cl)nc3cnc(C4CC4)cn23)CC1 [Compound 297]")
"+++ (pIC50 ≧ 6.00)"
>>> result("O=C(c1ccnnc1)N1CCN(Cc2c(-c3ccc(Cl)cc3Cl)nc3cnc(C4CC4)cn23)CC1 [Compound 296]")
"+++ (pIC50 ≧ 6.00)"
>>> result("COCC(=O)N1CCN(Cc2c(-c3ccc(Cl)cc3Cl)nc3ccc(NS(C)(=O)=O)cn23)CC1 [Compound 336]")
"+++ (pIC50 ≧ 6.00)"

----------
# TARGET SYSTEM: human GLUT2 (Homo sapiens, UniProt P11168)
# Construct: expressed in transfected cells
# ASSAY SUMMARY: [3H]-deoxy-D-glucose uptake assay, GLUT2
# Type: cell-based
# MEASUREMENT CONTEXT: [3H]-deoxy-D-glucose uptake in HEK293 cells stably expressing human GLUT2
TEST READOUT: GLUT2 pIC50

Example entries and their recorded answers appear below.
>>> result("N#Cc1ccccc1-c1cn2c(CN3CCOCC3)c(-c3ccc(Cl)cc3)nc2cn1 [Compound 269]")
"++ (pIC50 5.00-5.99)"
>>> result("CS(=O)(=O)N1CCN(Cc2c(-c3ccc(Cl)cc3Cl)nc3cnc(C4CC4)cn23)CC1 [Compound 330]")
"++ (pIC50 5.00-5.99)"
>>> result("CS(=O)(=O)Nc1ccc2nc(-c3ccc(Cl)cc3Cl)c(CN3CCn4ncnc4C3)n2c1 [Compound 345]")
"++ (pIC50 5.00-5.99)"
>>> result("CS(=O)(=O)Nc1ccc2nc(-c3ccc(Cl)cc3Cl)c(CN3CCOCC3)n2c1 [Compound 357]")
"++ (pIC50 5.00-5.99)"
>>> result("CCN(c1ccc2nc(-c3ccc(Cl)cc3)c(CN3CCN(C(C)=O)CC3)n2c1)S(C)(=O)=O [Compound 353]")
"++ (pIC50 5.00-5.99)"
>>> result("CC(=O)N1CCN(Cc2c(-c3ccc(Cl)cc3)nc3ccc(NS(=O)(=O)C4CC4)cn23)CC1 [Compound 318]")
"++ (pIC50 5.00-5.99)"

Looking for the measured GLUT2 pIC50 of Fc1cccc(F)c1-c1cn2c(CN3CCOCC3)c(-c3ccc(Cl)cc3)nc2cn1 [Compound 238] , can you help?
+++ (pIC50 ≧ 6.00)

----------
# TARGET SYSTEM: human GLUT1 (Homo sapiens)
# Construct: expressed in transfected cells
# ASSAY SUMMARY: [3H]-deoxy-D-glucose uptake assay, GLUT1
# Assay type: cell-based
# MEASUREMENT CONTEXT: [3H]-deoxy-D-glucose uptake in HEK293 cells stably expressing human GLUT1
TEST READOUT: GLUT1 pIC50

Example entries and their recorded answers appear below.
>>> result("N#Cc1ccccc1-c1cn2c(CN3CCOCC3)c(-c3ccc(Cl)cc3)nc2cn1 [Compound 269]")
"+++ (pIC50 ≧ 6.00)"
>>> result("CC(=O)N1CCN(Cc2c(-c3ccc(Cl)cc3)nc3ccc(-c4ccccn4)cn23)CC1 [Compound 295]")
"+++ (pIC50 ≧ 6.00)"
>>> result("O=C(c1cccc([N+](=O)[O-])c1)N1CCN(Cc2c(-c3ccc(Cl)cc3)nc3ccc(-c4ccccc4)cn23)CC1 [Compound 21]")
"++ (pIC50 5.00-5.99)"
>>> result("CN1CCN(Cc2c(-c3ccc(Cl)cc3)nc3ccc(-c4ccccc4)cn23)CC1=O [Compound 248]")
"++ (pIC50 5.00-5.99)"
>>> result("O=C(C1CCC1)N1CCN(Cc2c(-c3cccc([N+](=O)[O-])c3)nc3ccc(-c4ccccc4)cn23)CC1 [Compound 33]")
"++ (pIC50 5.00-5.99)"
>>> result("Cc1cccc(C)c1NC(=O)N1CCN(Cc2c(-c3ccc(Cl)cc3)nc3ccc(-c4ccccc4)cn23)CC1 [Compound 19]")
"+++ (pIC50 ≧ 6.00)"

--- query ---
Looking for the measured GLUT1 pIC50 of CC(=O)N1CCN(Cc2c(-c3ccc(Cl)cc3Cl)nc3ccc(N4CCCCS4(=O)=O)cn23)CC1 [Compound 354] , can you help?
+++ (pIC50 ≧ 6.00)
